The following molecules are listed with their measured DC50 values.
# testTarget: IRAK4 (Homo sapiens, UniProt Q9NWZ3)
# Construct: endogenous in cells; host or cells: OCI-LY10
# Sequence (Q9NWZ3 whole entry): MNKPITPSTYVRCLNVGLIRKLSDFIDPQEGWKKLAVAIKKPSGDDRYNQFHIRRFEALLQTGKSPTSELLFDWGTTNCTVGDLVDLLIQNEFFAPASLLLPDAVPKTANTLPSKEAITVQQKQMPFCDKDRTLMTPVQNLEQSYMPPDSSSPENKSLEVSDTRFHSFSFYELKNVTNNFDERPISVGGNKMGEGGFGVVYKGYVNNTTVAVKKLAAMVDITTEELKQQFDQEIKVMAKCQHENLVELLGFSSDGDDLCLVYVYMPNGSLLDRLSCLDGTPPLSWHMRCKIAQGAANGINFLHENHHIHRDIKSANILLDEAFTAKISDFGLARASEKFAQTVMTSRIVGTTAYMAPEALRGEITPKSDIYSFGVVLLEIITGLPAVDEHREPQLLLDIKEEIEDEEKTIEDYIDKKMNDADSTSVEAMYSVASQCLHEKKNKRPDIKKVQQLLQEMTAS
# testDetails: IRAK4 MSD Degradation in OCI-LY10
# Type: cell-based
# measurementParameters: OCI-LY10 cells, 4 hrs incubation, read-out: IRAK4 degradation in OCI-LY10 at 4 hrs: DC50
# Experimental: Degradation of IRAK4 in OCI-LY10 was quantitatively measured using Meso Scale Discovery technology. […] Compounds were then added to the assay plates with a final top concentration of 1 to 10 μM in a 1:3 dilution series with total of 8 doses. […] The assay plates were then incubated at room temperature for 1 hour, washed 3 times with 150 μL/well TBST buffer, and 150 μL/well MSD reading buffer (Meso Scale Discovery catalog number R92TC-2) was added. […]

{"columns": ["molecule", "DC50"],
 "data": [
  ["COc1cccc(C(=O)Nc2cc3cn([C@H]4CC[C@H](CN5CCC6(CC5)CC(CCc5cccc7c5n(C)c(=O)n7C5CCC(=O)NC5=O)C6)CC4)nc3cc2C(C)(C)O)n1 (some centres unmarked)", "50 to 100 nM"],
  ["CN(C[C@H]1CC[C@H](n2cc3cc(NC(=O)c4cccc(C(F)(F)F)n4)c(C(C)(C)O)cc3n2)CC1)C1CCN(c2ccc3c(c2)n(C2CCC(=O)NC2=O)c(=O)n3C)CC1 (some centres unmarked)", "500 to 1000 nM"],
  ["COc1cc2nn([C@H]3CC[C@H](CN4CCN(c5ccc6c(c5)n(C)c(=O)n6C5CCC(=O)NC5=O)CC4)CC3)cc2cc1NC(=O)c1cccc(C(C)(C)F)n1 (some centres unmarked)", "50 to 100 nM"],
  ["CN(C[C@H]1CC[C@H](n2cc3cc(NC(=O)c4cccc(C(F)(F)F)n4)c(C(F)F)cc3n2)CC1)C1CCN(c2ccc3c(c2)n(C)c(=O)n3C2CCC(=O)NC2=O)CC1 (some centres unmarked)", "< 50 nM"],
  ["COc1cc2nn([C@H]3CC[C@H](CN4CCC(c5cccc6c5n(C)c(=O)n6C5CCC(=O)NC5=O)CC4)CC3)cc2cc1NC(=O)c1cnccn1 (some centres unmarked)", "< 50 nM"]
]}

Measured DC50, CN(C[C@H]1CC[C@H](n2cc3cc(NC(=O)c4ccccn4)c(C(C)(C)O)cc3n2)CC1)C1CCN(Cc2cccc3c2n(C)c(=O)n3C2CCC(=O)NC2=O)CC1 (some centres unmarked) : 50 to 100 nM

Reported DC50 ( Cn1c(=O)n(C2CCC(=O)NC2=O)c2cccc(C[C@H]3C[C@H](OC4CCN(C[C@H]5CC[C@H](n6cc7cc(NC(=O)c8cccc(C(F)(F)F)n8)c(C(C)(C)O)cc7n6)CC5)CC4)C3)c21 (some centres unmarked) ) = < 50 nM

Recorded result, Cn1c(=O)n(C2CCC(=O)NC2=O)c2ccc(C3CN(C[C@H]4CC[C@H](n5cc6cc(NC(=O)c7cccc(C(F)(F)F)n7)c(C(F)F)cc6n5)CC4)C3)cc21 (some centres unmarked) , DC50: < 50 nM

Reported DC50 for Cn1c(=O)n(C2CCC(=O)NC2=O)c2ccc(C3CN(C[C@H]4CC[C@H](n5cc6cc(NC(=O)c7cccc(C(C)(C)F)n7)c(C(F)F)cc6n5)CC4)C3)cc21 (some centres unmarked) was 50 to 100 nM

GET /value?item= COc1cc2nn([C@H]3CC[C@H](CN4CC5(CC(CCNc6cccc7c6C(=O)N(C6CCC(=O)NC6=O)C7=O)C5)C4)CC3)cc2cc1NC(=O)c1cccc(C(C)(F)F)n1 (mixture of isomers) &field=DC50 returns < 50 nM

get_value(item= Cn1c(=O)n(C2CCC(=O)NC2=O)c2cccc(C#CCC3CCN(C[C@H]4CC[C@H](n5cc6cc(NC(=O)c7cccc(C(F)(F)F)n7)c(C(F)F)cc6n5)CC4)CC3)c21 (some centres unmarked) , readout=DC50) returns 50 to 100 nM

Taken from patent US12545659B2.
